Can you tell me IC50 for the items I'm about to list?
# subject-of-test: GCS (Canis lupus familiaris)
# Construct: endogenous in cells
# Sequence (A0A8I3MXG6 1-394): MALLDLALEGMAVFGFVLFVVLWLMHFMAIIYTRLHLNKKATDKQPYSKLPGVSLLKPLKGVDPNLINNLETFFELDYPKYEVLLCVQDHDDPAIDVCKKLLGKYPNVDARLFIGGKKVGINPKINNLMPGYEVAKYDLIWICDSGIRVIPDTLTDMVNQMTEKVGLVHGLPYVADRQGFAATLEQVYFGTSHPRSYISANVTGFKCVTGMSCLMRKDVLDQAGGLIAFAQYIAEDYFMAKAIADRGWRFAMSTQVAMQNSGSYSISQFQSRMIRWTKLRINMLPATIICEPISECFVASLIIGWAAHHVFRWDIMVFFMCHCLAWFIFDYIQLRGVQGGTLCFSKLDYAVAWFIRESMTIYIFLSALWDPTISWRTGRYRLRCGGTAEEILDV
# assay-explanation: GCS enzymatic assay (MDCK cell lysate, NBD-ceramide to glucosylceramide, LC/MS)
# test-settings: Table 2; class symbols A, B, C; the table does not say which of the assays; read-out: Data Range (IC50 values)

Ask: So what IC50 did O=C(N[C@H](CN1CCC1)[C@H](O)c1ccc(OC2CC2)c(Cl)c1)[C@@H]1CCN(c2ccc(Cl)cc2)C1 get with GCS (Canis lupus familiaris)?
Result: 1 to 30 nM

Ask: Quick one: O=C(N[C@H](CN1CCCC1)[C@H](O)c1ccc(OC2CC2)c(Cl)c1)C1CCN(c2ccc(Cl)cc2)C1 (stereo partly drawn) [Compound 3A]
Result: 30 to 100 nM

Ask: Quick one: O=C(N[C@H](CN1CCC1)[C@H](O)c1ccc(OC2COC2)c(Cl)c1)[C@@H]1CCN(c2ccc3cc(F)ccc3c2)C1
Result: 1 to 30 nM

###

Can you tell me pIC50 for the items I'm about to list?
# subject-of-test: GCS (Canis lupus familiaris)
# Construct: endogenous in cells
# assay-explanation: GCS enzymatic assay (MDCK cell lysate, NBD-ceramide to glucosylceramide, LC/MS)
# test-settings: Table 2; class symbols A, B, C; the table does not say which of the assays; read-out: Data Range (IC50 values)
pIC50: −log10 of the molar value.

Ask: So what's the measured pIC50 for this one? CC(C)Oc1ccc([C@@H](O)[C@@H](CN2CCCC2)NC(=O)[C@@H]2CCN(c3ccc(F)cc3)C2)cn1 [Compound 31]
Result: 6.00 to 7.00

Ask: Quick one: O=C(N[C@H](CN1CCCC1)[C@H](O)c1cc(F)c2c(c1)OCCO2)[C@@H]1CCN(c2cccc(Oc3ccc(F)cc3)n2)C1 [Compound 116]
Result: 7.52 to 9.00

Ask: Quick one: O=C(N[C@H](CN1CCCC1)[C@H](O)c1ccc2c(c1)OCCO2)[C@H]1CCN(c2ccc(Cl)cc2)C1 [Compound 1D]
Result: 7.00 to 7.52

Ask: Quick one: O=C(N[C@H](CN1CCCC1)[C@H](O)c1ccc2c(c1)OCCO2)[C@H]1CCN(c2ccc3c(c2)CCCC3)C1 [Compound 80H]
Result: 7.52 to 9.00

###

# subject-of-test: GCS (Canis lupus familiaris, UniProt A0A8I3MXG6)
# Construct: endogenous in cells; host or cells: MDCK (Madin-Darby canine kidney) cells, whole-cell lysate
# assay-explanation: GCS enzymatic assay (MDCK cell lysate, NBD-ceramide to glucosylceramide, LC/MS)
# Assay type: biochemical, canine
# test-settings: Table 2; class symbols A, B, C; the table does not say which of the assays; read-out: Data Range (IC50 values)
assay-endpoint: IC50

Ask: So what's the measured IC50 for this one? O=C(N[C@H](CN1CCCC1)[C@H](O)c1ccc(OC2CC2)c(Cl)c1)[C@@H]1CCN(c2ccc(Cl)c(Oc3ccc(F)cc3)c2)C1 [Compound 128]
Result: 1 to 30 nM

Ask: Quick one: O=C(N[C@H](CN1CCCC1)[C@H](O)c1ccc2c(c1)OCCO2)[C@@H]1CCN(c2ccc(Cl)c(Oc3ccccn3)c2)C1 [Compound 110]
Result: 1 to 30 nM

Ask: Quick one: O=C(N[C@H](CN1CCCC1)[C@H](O)c1ccc(OC2CC2)c(Cl)c1)[C@@H]1CCN(c2ccc(Cl)c(Oc3ccccn3)c2)C1 [Compound 103]
Result: 1 to 30 nM

###

# subject-of-test: GCS (Canis lupus familiaris, UniProt A0A8I3MXG6)
# Construct: endogenous in cells
# Sequence (A0A8I3MXG6 1-394): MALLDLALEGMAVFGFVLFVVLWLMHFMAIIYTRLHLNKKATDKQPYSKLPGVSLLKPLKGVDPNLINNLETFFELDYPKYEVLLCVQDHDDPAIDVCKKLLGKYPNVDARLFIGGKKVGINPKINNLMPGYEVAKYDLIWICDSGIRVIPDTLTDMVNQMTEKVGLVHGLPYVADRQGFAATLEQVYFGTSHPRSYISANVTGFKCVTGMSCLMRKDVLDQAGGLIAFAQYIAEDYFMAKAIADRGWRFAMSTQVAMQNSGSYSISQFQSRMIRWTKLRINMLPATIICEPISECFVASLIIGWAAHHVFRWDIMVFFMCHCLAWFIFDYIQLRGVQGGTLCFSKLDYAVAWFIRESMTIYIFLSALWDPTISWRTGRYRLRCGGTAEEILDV
# assay-explanation: GCS enzymatic assay (MDCK cell lysate, NBD-ceramide to glucosylceramide, LC/MS)
# test-settings: Table 2; class symbols A, B, C; the table does not say which of the assays; read-out: Data Range (IC50 values)
assay-endpoint: IC50

Ask: So what's the measured IC50 for this one? O=C(N[C@H](CN1CCCC1)[C@H](O)c1ccc(OC2CC2)c(Cl)c1)[C@@H]1CCN(c2cccc(Oc3ccccn3)c2)C1
Result: 1 to 30 nM

Ask: Quick one: O=C(N[C@H](CN1CCCC1)[C@H](O)c1cc(F)c2c(c1)OCCO2)[C@@H]1CCN(c2ccc3ccccc3c2)C1
Result: 1 to 30 nM

Ask: Quick one: CC(C)(C)c1ccc(N2CC[C@@H](C(=O)N[C@H](CN3CCCC3)[C@H](O)c3ccc(OC4CC4)c(Cl)c3)C2)cc1
Result: 30 to 100 nM

Ask: Quick one: O=C(N[C@H](CN1CCCC1)[C@H](O)c1ccc2c(c1)OCCO2)C1CCN(c2ccc(Cl)cc2Cl)C1 (stereo in doubt)
Result: 1 to 30 nM
